Target: Histone-lysine N-methyltransferase, H3 lysine-36 specific (Homo sapiens, UniProt Q96L73)
Sequence (Q96L73 whole entry): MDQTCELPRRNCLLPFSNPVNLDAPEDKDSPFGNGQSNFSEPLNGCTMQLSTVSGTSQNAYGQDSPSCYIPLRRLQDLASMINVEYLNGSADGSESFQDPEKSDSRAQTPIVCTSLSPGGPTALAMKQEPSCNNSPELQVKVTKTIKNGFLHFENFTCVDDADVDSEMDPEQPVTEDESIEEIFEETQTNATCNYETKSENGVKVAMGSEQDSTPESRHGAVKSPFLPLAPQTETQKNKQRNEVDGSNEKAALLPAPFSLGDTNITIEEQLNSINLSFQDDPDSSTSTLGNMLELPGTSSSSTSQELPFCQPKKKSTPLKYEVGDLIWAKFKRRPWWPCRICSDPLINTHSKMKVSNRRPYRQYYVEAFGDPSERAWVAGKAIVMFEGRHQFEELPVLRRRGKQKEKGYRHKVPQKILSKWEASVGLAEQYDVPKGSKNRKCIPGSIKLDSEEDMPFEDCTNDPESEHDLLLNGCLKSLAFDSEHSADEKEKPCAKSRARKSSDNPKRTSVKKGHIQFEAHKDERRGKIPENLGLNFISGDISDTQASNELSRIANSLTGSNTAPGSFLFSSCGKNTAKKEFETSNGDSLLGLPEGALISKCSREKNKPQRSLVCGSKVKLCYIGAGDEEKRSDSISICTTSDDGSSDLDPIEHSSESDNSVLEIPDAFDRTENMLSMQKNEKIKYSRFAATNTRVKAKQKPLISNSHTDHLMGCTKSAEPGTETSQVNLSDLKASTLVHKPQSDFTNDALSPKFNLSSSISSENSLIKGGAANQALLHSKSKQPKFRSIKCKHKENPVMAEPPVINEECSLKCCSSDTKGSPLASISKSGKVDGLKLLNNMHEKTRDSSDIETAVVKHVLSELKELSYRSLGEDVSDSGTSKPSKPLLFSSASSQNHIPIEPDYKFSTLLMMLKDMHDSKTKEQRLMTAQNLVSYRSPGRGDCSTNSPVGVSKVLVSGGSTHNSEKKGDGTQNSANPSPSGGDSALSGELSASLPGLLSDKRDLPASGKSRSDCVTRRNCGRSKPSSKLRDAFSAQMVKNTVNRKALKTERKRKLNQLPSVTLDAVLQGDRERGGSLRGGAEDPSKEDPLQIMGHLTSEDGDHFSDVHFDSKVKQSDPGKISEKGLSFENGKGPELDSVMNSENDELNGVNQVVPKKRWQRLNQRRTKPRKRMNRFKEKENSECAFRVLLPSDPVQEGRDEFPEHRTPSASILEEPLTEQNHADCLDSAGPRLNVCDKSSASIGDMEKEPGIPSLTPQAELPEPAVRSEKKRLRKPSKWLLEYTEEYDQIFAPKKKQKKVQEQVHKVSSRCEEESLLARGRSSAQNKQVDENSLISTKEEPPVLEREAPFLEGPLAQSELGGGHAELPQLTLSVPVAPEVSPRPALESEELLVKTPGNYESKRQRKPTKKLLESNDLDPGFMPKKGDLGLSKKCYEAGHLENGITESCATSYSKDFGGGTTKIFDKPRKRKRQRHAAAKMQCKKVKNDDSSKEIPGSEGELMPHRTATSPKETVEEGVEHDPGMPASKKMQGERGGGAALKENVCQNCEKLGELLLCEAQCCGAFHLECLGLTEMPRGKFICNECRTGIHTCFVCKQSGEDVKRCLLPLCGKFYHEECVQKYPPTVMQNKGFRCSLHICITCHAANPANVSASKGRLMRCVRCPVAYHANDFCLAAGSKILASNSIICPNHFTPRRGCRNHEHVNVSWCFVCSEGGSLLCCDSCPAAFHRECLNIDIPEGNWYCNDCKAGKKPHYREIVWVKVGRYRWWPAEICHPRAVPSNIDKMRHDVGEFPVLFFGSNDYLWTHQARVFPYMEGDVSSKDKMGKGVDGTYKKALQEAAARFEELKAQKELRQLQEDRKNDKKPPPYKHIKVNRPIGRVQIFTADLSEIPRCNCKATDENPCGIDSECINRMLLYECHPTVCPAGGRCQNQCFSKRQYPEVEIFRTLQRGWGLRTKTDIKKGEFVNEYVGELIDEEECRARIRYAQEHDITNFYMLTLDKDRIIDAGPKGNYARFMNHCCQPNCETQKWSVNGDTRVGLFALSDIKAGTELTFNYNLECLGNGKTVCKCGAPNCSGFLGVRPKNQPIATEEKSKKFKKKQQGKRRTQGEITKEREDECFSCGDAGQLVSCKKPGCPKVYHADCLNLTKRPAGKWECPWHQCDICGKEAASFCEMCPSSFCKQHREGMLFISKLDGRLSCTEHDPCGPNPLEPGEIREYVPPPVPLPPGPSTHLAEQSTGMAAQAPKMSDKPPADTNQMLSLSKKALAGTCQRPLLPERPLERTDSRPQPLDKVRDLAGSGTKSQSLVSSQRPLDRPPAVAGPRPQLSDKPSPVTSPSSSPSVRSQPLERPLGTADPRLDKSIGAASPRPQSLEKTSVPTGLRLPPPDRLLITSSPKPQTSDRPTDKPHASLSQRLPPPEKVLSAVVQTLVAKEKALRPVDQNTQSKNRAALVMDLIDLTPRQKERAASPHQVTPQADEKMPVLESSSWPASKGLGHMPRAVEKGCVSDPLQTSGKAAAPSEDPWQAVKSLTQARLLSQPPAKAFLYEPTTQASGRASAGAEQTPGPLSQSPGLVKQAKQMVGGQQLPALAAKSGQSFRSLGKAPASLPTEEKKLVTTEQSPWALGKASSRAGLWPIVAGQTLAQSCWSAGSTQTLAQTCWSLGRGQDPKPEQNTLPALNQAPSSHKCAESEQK
Assay: Inhibition of human NSD1-SET using histone H3.1 as substrate incubated for 1 hr by Western blot analysis
Property Label: IC50 (µM)
Answer with a number only, understood to be in µM.

Note to self: IC50 recorded for `COc1cc2nc(N3CCN(C)CC3)nc(NC3CCN(Cc4ccccc4)CC3)c2cc1OC` was 112

* * *

Molecular target: Histone-lysine N-methyltransferase NSD2 (Homo sapiens)
Sequence (O96028 whole entry): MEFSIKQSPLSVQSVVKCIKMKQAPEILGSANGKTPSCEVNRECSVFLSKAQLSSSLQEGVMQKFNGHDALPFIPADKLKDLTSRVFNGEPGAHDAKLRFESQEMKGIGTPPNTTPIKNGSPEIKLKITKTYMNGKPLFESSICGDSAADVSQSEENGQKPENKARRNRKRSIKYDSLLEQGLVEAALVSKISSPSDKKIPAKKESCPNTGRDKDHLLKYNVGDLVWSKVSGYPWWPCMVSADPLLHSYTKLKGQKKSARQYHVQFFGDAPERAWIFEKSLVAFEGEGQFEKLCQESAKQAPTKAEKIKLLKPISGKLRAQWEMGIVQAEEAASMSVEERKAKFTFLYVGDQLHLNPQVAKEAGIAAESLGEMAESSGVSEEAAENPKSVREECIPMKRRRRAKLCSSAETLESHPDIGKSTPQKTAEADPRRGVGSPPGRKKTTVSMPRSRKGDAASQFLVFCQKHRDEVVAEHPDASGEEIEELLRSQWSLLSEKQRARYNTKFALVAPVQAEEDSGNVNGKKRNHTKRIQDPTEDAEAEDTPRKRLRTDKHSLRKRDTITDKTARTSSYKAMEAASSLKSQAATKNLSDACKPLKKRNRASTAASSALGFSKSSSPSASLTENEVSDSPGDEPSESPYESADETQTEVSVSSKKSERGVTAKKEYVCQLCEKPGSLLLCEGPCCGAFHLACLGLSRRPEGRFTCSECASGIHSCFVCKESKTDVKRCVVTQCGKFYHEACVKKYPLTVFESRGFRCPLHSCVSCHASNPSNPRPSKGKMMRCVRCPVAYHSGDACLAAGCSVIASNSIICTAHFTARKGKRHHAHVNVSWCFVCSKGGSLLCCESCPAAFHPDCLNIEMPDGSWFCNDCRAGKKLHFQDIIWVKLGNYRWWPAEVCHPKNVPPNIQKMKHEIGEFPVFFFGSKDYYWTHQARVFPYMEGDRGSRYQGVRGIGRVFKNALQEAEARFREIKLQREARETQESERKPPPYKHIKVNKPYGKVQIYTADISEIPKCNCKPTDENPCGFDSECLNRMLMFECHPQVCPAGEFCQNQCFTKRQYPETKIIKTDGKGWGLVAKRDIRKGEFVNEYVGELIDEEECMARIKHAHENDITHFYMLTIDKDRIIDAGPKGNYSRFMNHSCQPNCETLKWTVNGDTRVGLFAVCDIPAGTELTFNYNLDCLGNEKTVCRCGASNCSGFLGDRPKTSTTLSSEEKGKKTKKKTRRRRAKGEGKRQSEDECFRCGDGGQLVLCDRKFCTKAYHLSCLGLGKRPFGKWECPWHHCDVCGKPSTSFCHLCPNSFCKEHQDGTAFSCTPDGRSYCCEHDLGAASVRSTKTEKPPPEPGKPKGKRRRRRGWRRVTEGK
Test: Inhibition of recombinant human N-terminal GST-tagged NSD2 CD (941 to 1240 residues) expressed in Escherichia coli using SAM as substrate in presence of nucleosomes by AlphaLISA method
Property Label: IC50 (µM)
Answer with a number only, understood to be in µM.

Note to self: IC50 recorded for `Nc1cccc2c(C(=O)NCc3ccccc3)cccc12` was 19.4

Note to self: IC50 recorded for `Nc1cccc2c(S(=O)(=O)NCc3ccc(C(F)(F)F)cc3)cccc12` was 10.4

Note to self: IC50 recorded for Nc1cccc2c(S(=O)(=O)NC3CC3c3ccccc3)cccc12 (trans isomer) was 19.9

Note to self: IC50 recorded for `O=S(=O)(NCc1ccccc1)c1cccc2c(NC3CCNCC3)cccc12` was 10.2

Note to self: IC50 recorded for `O=S(=O)(NCc1ccccc1)c1cccc2c(NCC3CC3)cccc12` was 10.7

Note to self: IC50 recorded for `CN1CCC(Nc2cccc3c(S(=O)(=O)NCc4ccccc4)cccc23)CC1` was 6

Note to self: IC50 recorded for `Nc1cccc2c(S(=O)(=O)NCc3ccc(F)cc3)cccc12` was 14.1

Note to self: IC50 recorded for `Nc1cccc2c(S(=O)(=O)NCCc3ccccc3)cccc12` was 15.4

Note to self: IC50 recorded for `CC(C)(C)NS(=O)(=O)c1cccc2c(N)cccc12` was 18.4

Note to self: IC50 recorded for `Nc1cccc2c(S(=O)(=O)NCc3ccncc3)cccc12` was 26

Note to self: IC50 recorded for `COc1ccc(CNS(=O)(=O)c2cccc3c(N)cccc23)cc1` was 13.5

Note to self: IC50 recorded for `CCN1CCC(Nc2cccc3c(S(=O)(=O)NCc4ccccc4)cccc23)CC1` was 3.2

Note to self: IC50 recorded for `CS(=O)(=O)N1CCC(Nc2cccc3c(S(=O)(=O)NCc4ccccc4)cccc23)CC1` was 11.8

Note to self: IC50 recorded for `N#Cc1ccc(CNS(=O)(=O)c2cccc3c(N)cccc23)cc1` was 18.1

Note to self: IC50 recorded for `O=S(=O)(NCc1ccccc1)c1cccc2c(NC3CCCCC3)cccc12` was 12.6

Note to self: IC50 recorded for `O=C(NCc1ccccc1)c1cccc2ncccc12` was 19.6

Note to self: IC50 recorded for `Cl.Nc1cccc2c(S(=O)(=O)NCc3ccccc3)cccc12` was 2.7

Note to self: IC50 recorded for `O=C(c1ccccc1)N1CCC(Nc2cccc3c(S(=O)(=O)NCc4ccccc4)cccc23)CC1` was 18

Note to self: IC50 recorded for `CN1CCC(CNS(=O)(=O)c2cccc3c(N)cccc23)CC1` was 3.4

Note to self: IC50 recorded for `Nc1cccc2c(S(=O)(=O)NCc3cccs3)cccc12` was 22.7

Note to self: IC50 recorded for `CC(=O)N1CCC(Nc2cccc3c(S(=O)(=O)NCc4ccccc4)cccc23)CC1` was 7.5

Every entry's value here was drawn from ChEMBL document CHEMBL4825702.
